assay: pharmacokinetics after oral administration in mice; format: in vivo, C57 BL/6 mice; settings: C57 BL/6, mouse, plasma, single dose 150 mg/kg
TEST READOUT: Tmax (h)
Output spec: scalar in h, unitless text.

Ask: Which Tmax value belongs to CNC(=O)c1cc(Oc2ccc(NC(=O)c3cccc(C(F)(F)F)c3)cc2)ccn1 [YL529] ?
Reply: 2

====

assay: pharmacokinetics after oral administration in mice; format: in vivo, C57 BL/6 mice; settings: C57 BL/6, mouse, plasma, single dose 150 mg/kg
TEST READOUT: AUC(0-inf) (µg·h/mL)
Output spec: scalar in µg·h/mL, unitless text.

Ask: Which AUC(0-inf) value belongs to CNC(=O)c1cc(Oc2ccc(NC(=O)c3cccc(C(F)(F)F)c3)cc2)ccn1 [YL529] ?
Reply: 171

====

assay: pharmacokinetics after oral administration in mice; type: in vivo, C57 BL/6 mice; details: C57 BL/6, mouse, plasma, 150 mg/kg, read-out: peak plasma concentration (Cmax)
TEST READOUT: Cmax

Ask: Which Cmax value belongs to CNC(=O)c1cc(Oc2ccc(NC(=O)c3cccc(C(F)(F)F)c3)cc2)ccn1 [YL529] ?
Reply: 18000 ng/mL

====

experiment: pharmacokinetics after oral administration in mice; assay type: in vivo, C57 BL/6 mice; details: C57 BL/6, mouse, plasma, single dose 150 mg/kg
TEST READOUT: AUC(0-t) (µg·h/mL)
Output spec: scalar in µg·h/mL, unitless text.

Ask: Which AUC(0-t) value belongs to CNC(=O)c1cc(Oc2ccc(NC(=O)c3cccc(C(F)(F)F)c3)cc2)ccn1 ?
Reply: 167

====

assay: pharmacokinetics after oral administration in mice; format: in vivo, C57 BL/6 mice; settings: C57 BL/6, mouse, plasma, po, 150 mg/kg, single dose 150 mg/kg, read-out: t1/2β (converted)
TEST READOUT: half-life (h)
Output spec: scalar in h, unitless text.

Ask: Which half-life value belongs to CNC(=O)c1cc(Oc2ccc(NC(=O)c3cccc(C(F)(F)F)c3)cc2)ccn1 ?
Reply: 6.03
